Tested on: SNB-78 CNS
assayDetails: NCI tumour cell line growth inhibition, 48 h
observedProperty: TGI

# compound, reportedMeasurement
records = [
    ("CC(CCC[C@H](C)CO)[C@H]1[C@@H](O)C(O)C2[C@@H]3C[C@@H](O)C4(O)C[C@@H](O)CC[C@]4(C)C3CC[C@@]21C (some centres not stated)", "> 100 µM"),
    ("O=C(Nc1cccc2c1C(=O)c1c(NC(=O)c3ccccc3)ccc(Nc3cccc4c3C(=O)c3ccccc3C4=O)c1C2=O)c1ccccc1", "> 100 µM"),
    ("CCCCCCCCCCCC(=O)OC[C@H](C[As](=O)(O)O)OC(=O)CCCCCCCCCCC", "9.45 µM"),
    ("COc1cc(-c2nccc3cc(OC)c(OC)cc23)ccc1O", "> 100 µM"),
    ("COc1cc2c(cc1OC)C1C(=O)c3c(O)cc4c(c3OC1CO2)C=CC(C)(C)O4 (configuration not stated)", "> 100 µM"),
]

For every record below, what is its TGI?
1. CCC(C)C(N)C(=O)NC(CC(N)=O)C(=O)NC(CC(C)C)C(=O)NC(CCCCN)C(=O)NC(C)C(=O)NC(CC(C)C)C(=O)NC(C)C(=O)NC(C)C(=O)NC(CC(C)C)C(=O)NC(C)C(=O)NC(CCCCN)C(=O)NC(CCCCN)C(=O)NC(C(=O)NC(CC(C)C)C(N)=O)C(C)CC (configuration not stated)
2. Cc1ccc(-c2nc3ccccc3c(=O)n2NCC2(O)OCC(O)C(O)C2O)cc1 (configuration not stated)

1: 29.2 µM; 2: > 100 µM

###

What TGI was measured for each of the following?
System: OVCAR-4 ovarian
assayDetails: NCI tumour cell line growth inhibition, 48 h
Answers are plain numbers, in µM.

# smilesEntry, TGI, µM
data = [
    ("COc1c(C)cc2c(C(C)C)c(O)c(O)c(C=O)c2c1O", 63.9),
]

Now, please, on to the next compound.
Fill blank: measured TGI of the compound COc1cc2c3cc1Oc1c(OC)c(OC)cc4c1C(=NCC4)Cc1ccc(cc1)Oc1cc(ccc1O)C[C@H]3N(C)CC2 is ____.
40.7

###

System: HOP-62 NSCLC
assayDetails: NCI tumour cell line growth inhibition, 48 h
Would you mind telling me the reported TGI of each entry?

The following molecules have reported results that may help.
# molecule, TGI
measured = [
    ("COc1cc(C2CC(c3cccc(Nc4ccnc5cc(Cl)ccc45)c3)=NN2c2ccc(Cl)cc2)cc(OC)c1OC (stereo not given)", "22.7 µM"),
    ("S=C1NC2=C(COc3ccccc32)C(c2ccc(Cl)cc2)N1 (stereo not given)", "31 µM"),
    ("COc1cc(C)c(/C=C2/N=C(c3ccccc3)OC2=O)c([N+](=O)[O-])c1OC", "> 100 µM"),
]

Items follow; give TGI for each.
1. NS(=O)(=O)c1nnc(NC(=O)C23CC4CC(CC(C4)C2)C3)s1
2. CC1(C)[C@@H]2CC[C@]1(C)[C@H](OC(=O)/C=C/c1ccccc1)C2
3. O=C1CSC(=S)N1c1ccco1
4. N.N.N.N.N.NC(=O)[O-].[Co+3].[I-]
5. O=C(O)C[C@@H](Cl)[C@H](NC(=O)OCc1ccccc1)C(=O)O
6. N#Cc1ccc(Cc2ccccn2)cc1Cl

["> 100 µM", "63.1 µM", "> 100 µM", "> 100 µM", "> 100 µM", "> 100 µM"]

Form field: reported TGI of O=C(Nc1cccc2c1C(=O)c1c(NC(=O)c3ccccc3)ccc(Nc3cccc4c3C(=O)c3ccccc3C4=O)c1C2=O)c1ccccc1
> 100 µM

Where these numbers come from: PubChem BioAssay (NCI)
